Every entry's value here was drawn from paper PMC5149029.

tested on: Hep G2 cells; test: Cell viability, MTT colorimetric assay; format: cell-based; settings: Hep G2, 48 h, 125 micro molar
Marks after values point to notes of the source that are not given here.
measure: Cell viability (% of control)

>>> endpoint_result("COc1cc([C@@H]2Oc3cc([C@H]4Oc5cc(O)cc(O)c5C(=O)[C@@H]4OC(=O)c4cc(O)c(O)c(O)c4)ccc3O[C@H]2CO)ccc1O")
"49 + 6.9^* % of control"
>>> endpoint_result("COc1cc([C@H]2Oc3cc([C@H]4Oc5cc(O)cc(O)c5C(=O)[C@@H]4O)ccc3O[C@@H]2CO)ccc1O")
"71 + 8.3^* % of control"
>>> endpoint_result("COc1cc([C@@H]2Oc3cc([C@H]4Oc5cc(O)cc(O)c5C(=O)[C@@H]4O)ccc3O[C@H]2CO)ccc1O")
"60 + 7.9^* % of control"
>>> endpoint_result("COc1cc([C@H]2Oc3cc([C@H]4Oc5cc(O)cc(O)c5C(=O)[C@@H]4OC(=O)c4cc(O)c(O)c(O)c4)ccc3O[C@@H]2CO)ccc1O")
"52 + 8.1^* % of control"
